Molecular target: EGFR V3 (Homo sapiens, UniProt P00533, DELINS30-297G)
Construct: expressed in transfected cells; host or cells: BaF3 (murine pro-B), retroviral pMXs-IRES-Blasticidin
Sequence (P00533 with tags, fused parts or gaps DELINS30-297G): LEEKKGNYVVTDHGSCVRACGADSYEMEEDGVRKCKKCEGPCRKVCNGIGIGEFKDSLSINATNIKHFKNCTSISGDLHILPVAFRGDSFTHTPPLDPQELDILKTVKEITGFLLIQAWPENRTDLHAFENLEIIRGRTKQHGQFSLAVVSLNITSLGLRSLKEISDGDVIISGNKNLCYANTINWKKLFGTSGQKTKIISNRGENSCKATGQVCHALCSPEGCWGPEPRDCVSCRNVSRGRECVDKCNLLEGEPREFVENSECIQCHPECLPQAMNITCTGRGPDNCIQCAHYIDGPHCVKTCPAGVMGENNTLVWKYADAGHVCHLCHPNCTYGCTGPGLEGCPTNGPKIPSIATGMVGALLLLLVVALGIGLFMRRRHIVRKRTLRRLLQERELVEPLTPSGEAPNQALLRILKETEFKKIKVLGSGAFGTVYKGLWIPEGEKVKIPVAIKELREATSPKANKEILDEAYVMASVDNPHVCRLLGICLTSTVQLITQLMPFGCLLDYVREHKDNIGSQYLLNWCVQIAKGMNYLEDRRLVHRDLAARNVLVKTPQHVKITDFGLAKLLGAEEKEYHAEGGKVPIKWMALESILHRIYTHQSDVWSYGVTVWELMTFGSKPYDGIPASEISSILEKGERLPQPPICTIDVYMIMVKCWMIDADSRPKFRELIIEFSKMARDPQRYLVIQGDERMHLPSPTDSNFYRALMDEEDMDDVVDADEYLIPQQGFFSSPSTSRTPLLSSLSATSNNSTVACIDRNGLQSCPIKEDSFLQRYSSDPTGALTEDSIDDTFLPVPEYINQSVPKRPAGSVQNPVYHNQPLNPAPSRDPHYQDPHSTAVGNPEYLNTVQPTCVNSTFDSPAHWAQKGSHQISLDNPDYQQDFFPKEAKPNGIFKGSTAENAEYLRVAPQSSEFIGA
Assay: BaF3 cell proliferation assay, EGFR V3 (Table A)
Type: cell-based
Conditions: potency code, 3 days, CellTiterGlo, read-out: EGFR V3 (Activity for Inhibiting EGFR)
quantity.kind: IC50

Some entries whose results are on file:
>  <compound>
C=CC(=O)Nc1cc2c(Nc3ccc(OCc4cccc(F)n4)c(Cl)c3)ncnc2cc1OCCCN1CC(OC)C1

>  <quantity.kind>
IC50

>  <readout.value>
30 to 50 nM

$$$$
>  <compound>
C=CC(=O)Nc1cc2c(Nc3ccc(OCc4cccc(F)c4)c(Cl)c3)ncnc2cc1OCCCN1C[C@H]2C[C@@H]1CO2

>  <quantity.kind>
IC50

>  <readout.value>
100 to 200 nM

$$$$
>  <compound>
C=CC(=O)Nc1cc2c(Nc3ccc(OCc4ccccn4)c(Cl)c3)ncnc2cc1C#C[C@@H]1[C@H]2CN(C)C[C@@H]12

>  <quantity.kind>
IC50

>  <readout.value>
30 to 50 nM

$$$$
>  <compound>
C=CC(=O)Nc1cc2c(Nc3ccc(OCc4ccccn4)cc3)ncnc2cc1OCCN1CC2CN(C)CC2C1 (centres unmarked)

>  <quantity.kind>
IC50

>  <readout.value>
100 to 200 nM

$$$$
>  <compound>
C=CC(=O)Nc1cc2c(Nc3ccc(OCc4cnccn4)c(Cl)c3)ncnc2cc1OCCCN1CC(OC)C1

>  <quantity.kind>
IC50

>  <readout.value>
30 to 50 nM

$$$$
>  <compound>
C=CC(=O)Nc1cc2c(Nc3ccc(OCc4cccc(C)n4)c(Cl)c3)ncnc2cc1OCCN1CCOCC1

>  <quantity.kind>
IC50

>  <readout.value>
100 to 200 nM

$$$$
>  <compound>
C=CC(=O)Nc1cc2c(Nc3ccc(OCc4ccccn4)c(Cl)c3)ncnc2cc1OCCN1CC2(CCN2C)C1

>  <quantity.kind>
IC50

>  <readout.value>
30 to 50 nM

$$$$
>  <compound>
C=CC(=O)Nc1cc2c(Nc3ccc(OCc4ccccn4)c(Cl)c3)ncnc2cc1C#CC12CCN(CC1)CC2

>  <quantity.kind>
IC50

>  <readout.value>
30 to 50 nM

$$$$
>  <compound>
C=CC(=O)Nc1cc2c(Nc3ccc(OCc4cccc(C)n4)c(Cl)c3)ncnc2cc1O[C@@H]1CCN(C)C1

>  <quantity.kind>
IC50

>  <readout.value>
100 to 200 nM

$$$$
>  <compound>
C=CC(=O)Nc1cc2c(Nc3ccc(OCc4cccnn4)c(Cl)c3)ncnc2cc1OCCN1CC(OC)C1

>  <quantity.kind>
IC50

>  <readout.value>
50 to 100 nM

$$$$

Would you kindly share the measured IC50 for C=CC(=O)Nc1cc2c(Nc3cc(Cl)c(OCc4ccccn4)cc3F)ncnc2cc1OCCN1CCOCC1 ?
10 to 20 nM

Would you kindly share the measured IC50 for C=CC(=O)Nc1cc2c(Nc3ccc(OCc4ccccn4)c(Cl)c3)ncnc2cc1OCC1CCCN1 (centres unmarked) ?
50 to 100 nM

Would you kindly share the measured IC50 for C=CC(=O)Nc1cc2c(Nc3ccc(OCc4cccc(C)n4)c(Cl)c3)ncnc2cc1OCCCN1CCOCC1 ?
100 to 200 nM

Would you kindly share the measured IC50 for C=CC(=O)Nc1cc2c(Nc3ccc(OCc4ccccn4)c(Cl)c3)ncnc2cc1C#C[C@H]1CCN(C)C1 ?
20 to 30 nM

Would you kindly share the measured IC50 for C=CC(=O)Nc1cc2c(Nc3ccc(OCc4ccccn4)c(Cl)c3)ncnc2cc1OCC1(N)CC1 ?
50 to 100 nM

Would you kindly share the measured IC50 for C=CC(=O)Nc1cc2c(Nc3ccc(OCc4cccnn4)c(Cl)c3)ncnc2cc1OCCN1CCN(C)CC1 ?
100 to 200 nM

Would you kindly share the measured IC50 for C=CC(=O)Nc1cc2c(Nc3ccc(OCc4cccc(F)n4)c(Cl)c3)ncnc2cc1OCCCN1CCOCC1 ?
30 to 50 nM

Would you kindly share the measured IC50 for C=CC(=O)Nc1cc2c(Nc3ccc(OCc4cccnn4)c(Cl)c3)ncnc2cc1OCCCN1CCOCC1 ?
30 to 50 nM

Would you kindly share the measured IC50 for C=CC(=O)Nc1cc2c(Nc3ccc(Oc4ccc(C)nc4)c(C)c3)ncnc2cc1OC1CCN(C)C1 (centres unmarked) ?
100 to 200 nM

Would you kindly share the measured IC50 for C=CC(=O)Nc1cc2c(Nc3ccc(OCc4ccccn4)c(Cl)c3)ncnc2cc1N1CCC(N(C)C)CC1 ?
30 to 50 nM
